assay.procedure: Effect of pH on fluorescence of sensor and its Fe complex
Format: physicochemical
condition.description: pH adjusted with HCl/NaOH
parameter.measured: pH range over which sensor (and Fe complex) fluorescence is stable / working pH range

Known pH range over which sensor (and Fe complex) fluorescence is stable / working pH range results, listed for orientation:
- CCNc1cc2c(cc1C)C1(c3cc(C)c(NCC)cc3O2)c2ccccc2C(=O)N1/N=C/C=C/c1ccc(N(C)C)cc1: 9.3 to 4.5
- CCN(CC)c1ccc2c(c1)OC1=C(CCC/C1=C\C=C1\N(C)c3ccccc3C1(C)C)C21c2ccccc2C(=O)N1/N=C\C=C\c1ccc(N(C)C)cc1 (stereo not shown): ≥ 4.5
- CN(C)c1ccc(/C=C/C=N/N2C(=O)c3ccccc3C23c2cc4c5c(c2Oc2c3cc3c6c2CCCN6CCC3)CCCN5CCC4)cc1 [Rh101D]: 9.5 to 4.5

Now for the compound whose pH range over which sensor (and Fe complex) fluorescence is stable / working pH range we want.
// returns reported pH range over which sensor (and Fe complex) fluorescence is stable / working pH range for input "CCN(CC)c1ccc2c(c1)Oc1cc(N(CC)CC)ccc1C21c2ccccc2C(=O)N1CC/N=C(\C)c1cccc(C(C)=O)n1" 4 to 9
